assay.target: UniProt:P78527
assay.overview: Evaluation of inhibitory activity against DNA-PK (HTRF kinase assay, GST-cMyc-p53 substrate)
Type: biochemical
study.conditions: compound at 0.1 μM; read-out: EXP_VALUE(% Inhibition) DNA-PK(h) 0.1 μM
quantity.kind: inhibition at 0.1 µM (%)

- molecule: "C[C@H](Nc1ncnc2[nH]ccc(=O)c12)c1c(Cl)c2cccc(C(=O)Nc3ccccc3)c2c(=O)n1-c1ccccc1"
  inhibition at 0.1 µM / %: 16

[1] C[C@H](Nc1ncnc2[nH]ccc(=O)c12)c1c(Cl)c2cccc(S(C)(=O)=O)c2c(=O)n1-c1ccccc1
[2] CCCOC(C)(C)c1ncc(-c2cccc3c(Cl)c([C@H](C)Nc4ncnc5[nH]ccc(=O)c45)n(-c4ccccc4)c(=O)c23)cn1
[in] Could you please tell me which of these two has the higher inhibition at 0.1 µM: 1 or 2 ? The response must carry the label of the picked entry.
[out] 2

[a] COC(C)(C)c1ncc(-c2cccc3c(Cl)c([C@H](C)Nc4ncnc5[nH]ccc(=O)c45)n(-c4ccccc4)c(=O)c23)cn1
[b] C[C@H](Nc1ncnc2[nH]ccc(=O)c12)c1c(Cl)c2cccc([S+]([O-])c3ncccn3)c2c(=O)n1-c1ccccc1 (stereo partly drawn)
[in] Could you determine which record has the numerically smaller inhibition at 0.1 µM? Candidates: a and b The response must carry the label of the picked entry.
[out] b

[A] CCOC(C)(C)c1ncc(-c2cccc3c(Cl)c([C@H](C)Nc4ncnc5[nH]ccc(=O)c45)n(-c4ccccc4)c(=O)c23)cn1
[B] C[C@H](Nc1ncnc2[nH]ccc(=O)c12)c1c(Cl)c2cccc(S(=O)(=O)C3COC3)c2c(=O)n1-c1ccccc1
[in] Could you determine which record has the numerically smaller inhibition at 0.1 µM? Candidates: A and B The response must carry the label of the picked entry.
[out] B

[A] C[C@H](Nc1ncnc2[nH]ccc(=O)c12)c1c(Cl)c2cccc(OCc3ccccn3)c2c(=O)n1-c1ccccc1
[B] CC(C)[S@](=N)(=O)c1cccc2c(Cl)c([C@H](C)Nc3ncnc4[nH]ccc(=O)c34)n(-c3ccccc3)c(=O)c12
[in] Could you please tell me which of these two has the higher inhibition at 0.1 µM: A or B ? The response must carry the label of the picked entry.
[out] A
(A: 68%, B: 37%)

src = patent US20230072683A1
